Tested on: SR leukemia
Measurement Notes: NCI-60 one-dose screen, 48 h
Experimental Context: 10 µM unless noted
About 83,000 compounds went through this panel and 20% of them were active in at least one assay; those are over-represented in the sample as a whole. Calls of active or inactive are those of the source. How the source made its calls: active means growth percent below 10; inactive means the rest.
Classes used: active, inactive

>  <Molecule>
CN(C)N1C(=O)c2c(Cl)c(Cl)c(Cl)c(Cl)c2C1=O

>  <Target>
SR leukemia

>  <Discrete Label>
inactive

$$$$
>  <Molecule>
COc1ccc(-c2cc(-c3cn(-c4cccc(Cl)c4)nc3-c3ccc(OC)cc3)[nH]c(=S)n2)cc1

>  <Target>
SR leukemia

>  <Discrete Label>
inactive

$$$$
>  <Molecule>
CCCCCCCCCCCCC1CCC(=O)O1 (stereo not drawn)

>  <Target>
SR leukemia

>  <Discrete Label>
inactive

$$$$
>  <Molecule>
Cc1ccc2c(C)c3c(ccc4ccccc43)c[n+]2c1

>  <Target>
SR leukemia

>  <Discrete Label>
inactive

$$$$
>  <Molecule>
C=CCOc1ccc2c(C)cc(=O)oc2c1

>  <Target>
SR leukemia

>  <Discrete Label>
inactive

$$$$
>  <Molecule>
O=c1nc(-c2ccccc2)c2cc(-c3ccc(N4CCOCC4)cc3)ccc2[nH]1

>  <Target>
SR leukemia

>  <Discrete Label>
inactive

$$$$
>  <Molecule>
C=C1C(=O)O[C@H]2[C@H]1CC/C(COC(=O)NCc1cn(C)c3ccccc13)=C\CC[C@@]1(C)O[C@@H]21

>  <Target>
SR leukemia

>  <Discrete Label>
active

$$$$
>  <Molecule>
COc1ccc(Oc2nc(Nc3ccc(N4CCOCC4)cc3)ncc2NC(=O)Nc2cccc(OC)c2)cc1

>  <Target>
SR leukemia

>  <Discrete Label>
inactive

$$$$
